// values below are reported EC50
Molecular target: T1, human MICA allele MICA*004 (human, UniProt Q29983 24-297)
T1 construct: Expressed on transfected C1R cells; also called MICA*04; C1R-MICA*004
T1 chain: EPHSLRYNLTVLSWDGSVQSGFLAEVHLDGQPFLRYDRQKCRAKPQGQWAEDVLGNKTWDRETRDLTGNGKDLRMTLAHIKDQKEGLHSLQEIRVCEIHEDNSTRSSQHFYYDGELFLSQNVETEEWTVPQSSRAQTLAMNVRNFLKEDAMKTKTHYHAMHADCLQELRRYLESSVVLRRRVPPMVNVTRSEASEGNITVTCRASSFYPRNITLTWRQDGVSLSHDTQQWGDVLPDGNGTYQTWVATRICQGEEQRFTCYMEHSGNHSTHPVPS
Experiment: flow cytometry, C1R-MICA*004 transfectant cells
reportedEndpoint: EC50 (µg/mL)

1. mAb3 (antibody, V domains shown, Produced in CHO cells as human IgG1 with huCk constant domain) VH: QVQLQESGPGLVKPSETLSLTCTVSGYSITSDYAWNWIRQPPGKGLEWIGFVSYSGTTKYNPSLKSRVTISRDTSKNQFSLKLSSVTAADTAVYYCARGYGFDYWGQGTTVTVSS VL: EIVLTQSPATLSLSPGERATLSCSATSSISSIYFHWYQQKPGQAPRLLIYRTSNLASGIPARFSGSGSGTDYTLTISSLEPEDVAVYYCQQGTTIPFTFGQGTKLEIK; 0.0608
2. mAb9 (antibody, V domains shown, Produced in CHO cells as human IgG1 with huCk constant domain) VH: QVQLQESGPGLVKPSETLSLTCTVSGYSITSDYAWNWIRQPPGKGLEWMGFVSYSGTTKYNPSLKSRVTISRDTSENQFSLKLSSVTAADTAVYYCARGYGFDYWGQGTTVTVSS VL: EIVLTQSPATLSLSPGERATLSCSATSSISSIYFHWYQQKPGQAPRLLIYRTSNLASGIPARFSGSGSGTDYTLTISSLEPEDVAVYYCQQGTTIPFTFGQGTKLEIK; 0.0438
3. mAb8 (antibody, V domains shown, Produced in CHO cells as human IgG1 with huCk constant domain) VH: QVQLQESGPGLVKPSETLSLTCTVSGYSITSDYAWNWIRQPPGKGLEWMGFVSYSGTTKYNPSLKSRVTISRDTSENQFSLKLSSVTAADTAVYYCARGYGFDYWGQGTTVTVSS VL: EIVLTQSPATLSLSPGERATLSCSATSSISSIYFHWYQQKPGQAPRLLIYRTSNLASGIPARFSGSGSGTSYTLTISSLEPEDFAVYYCQQGTTIPFTFGQGTKLEIK; 0.0481
4. mAb6 (antibody, V domains shown, Produced in CHO cells as human IgG1 with huCk constant domain) VH: QVQLQESGPGLVKPSETLSLTCTVSGYSITSDYAWNWIRQPPGKGLEWMGFVSYSGTTKYNPSLKSRVTISRDTSKNQFSLKLSSVTAADTAVYYCARGYGFDYWGQGTTVTVSS VL: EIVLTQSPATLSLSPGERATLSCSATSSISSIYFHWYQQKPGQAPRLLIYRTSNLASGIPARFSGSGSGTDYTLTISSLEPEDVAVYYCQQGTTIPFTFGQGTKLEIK; 0.0838
5. mAb2 (antibody, V domains shown, Produced in CHO cells as human IgG1 with huCk constant domain) VH: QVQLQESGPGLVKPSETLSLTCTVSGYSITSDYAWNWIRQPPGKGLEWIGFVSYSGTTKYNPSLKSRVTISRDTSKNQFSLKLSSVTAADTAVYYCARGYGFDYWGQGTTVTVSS VL: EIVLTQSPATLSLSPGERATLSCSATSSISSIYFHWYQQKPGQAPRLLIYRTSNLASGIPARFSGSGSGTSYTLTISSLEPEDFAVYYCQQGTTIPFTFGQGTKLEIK; 0.0381
